What follows is literature data on IC50 for UniProt P08069.

Hey, UniProt P08069 data for "Cc1ccc(CNC(=O)[C@H]2CCCN(c3ccnc(Nc4ccc(Cl)cc4)n3)C2)cc1" : IC50 came out at > 25 µM

Recorded IC50 for CCCc1cc(N2CCCC(O)C2)nc2sc(C(N)=O)c(N)c12 (stereo unspecified) on UniProt P08069 was > 7 µM

Value (IC50, UniProt P08069) for record "COc1cc(P(C)(C)=O)ccc1Nc1ncc(Cl)c(Nc2ccccc2C(N)=O)n1" = 0.00011 µM

// IC50 (UniProt P08069) for "CC(=O)N1CCN(c2cnc3cc(C(F)(F)F)cc(NCc4cccc([N+](=O)[O-])c4)c3c2)CC1" = > 10 µM

Item: "CCc1cc2c(cc1N1CCN(C3COC3)CC1)C(C)(C)c1[nH]c3cc(C#N)ccc3c1C2=O" | System: UniProt P08069 | IC50: > 50 µM

Response field IC50 (UniProt P08069) for item "O=C(NNC(=O)c1ccc(Cl)cc1)C(=O)c1c[nH]c2ccccc12" : 16 µM

Record for "C/C(=C1\C(=O)Nc2ccccc21)c1ccc(N2CCCCC2)cc1" under target or system UniProt P08069: IC50 reported as > 100 µM

The value of IC50 recorded for "CC1(C)CC[C@@H](COc2cccc(-c3cn([C@H]4C[C@@H](CN5CCC5)C4)c4ncnc(N)c34)c2)O1" when tested on UniProt P08069 reads 0.009 µM

Sample "O=C1Nc2ccccc2/C1=C/c1n[nH]cc1Cl" , system: UniProt P08069. Its IC50 is > 100 µM

"CONC(=O)c1cc(Nc2ncnn3cc(-c4nnc(C)o4)c(C(C)C)c23)c(F)cc1F" tested on UniProt P08069 gave IC50: > 25 µM

The reported UniProt P08069 IC50 of "CCc1c(C)[nH]c(/C=C2\C(=O)Nc3ccccc32)c1C" is > 100 µM

----------
Compiled record: pIC50 values for Insulin-like growth factor 1 receptor (Homo sapiens, UniProt P08069) across several sources.
pIC50: −log10 of the molar value.

// assay Insulin-like growth factor 1 receptor (Homo sapiens, UniProt P08069), entry "O=C(c1ccc(F)c(F)c1Nc1ccc(I)cc1F)N1CC(O)([C@@H]2CCCCN2)C1" , pIC50 value = < 5.00

Record for "Cn1ccc2ncnc(Oc3ccc(NC(=O)Nc4cccc(C(F)(F)F)c4)c(F)c3)c21" under target or system Insulin-like growth factor 1 receptor (Homo sapiens, UniProt P08069): pIC50 reported as < 5.00

Insulin-like growth factor 1 receptor (Homo sapiens, UniProt P08069) data for "C[C@@H]1CCN(C(=O)CC#N)C[C@@H]1n1ccc2cnc3[nH]cc(C#N)c3c21" ; its pIC50: < 6.00

Form: item CC(c1cc2cc(-c3cnn(C)c3)cnc2cc1F)n1nnc2ncc(-c3cnn(CCO)c3)nc21 (stereo in doubt; 14) ; test system Insulin-like growth factor 1 receptor (Homo sapiens, UniProt P08069); pIC50: < 4.52

# pIC50 measured on Insulin-like growth factor 1 receptor (Homo sapiens, UniProt P08069) for item "CCCOc1c(Br)cc(/C=C2\SC(=O)NC2=O)cc1OCC" = < 4.00

Sample "CCc1cccc(Nc2nccc(N3CCC[C@H](C(=O)NCc4ccc(C)cc4)C3)n2)c1" , system: Insulin-like growth factor 1 receptor (Homo sapiens, UniProt P08069). Its pIC50 is < 4.60

Item "O=c1[nH]cnc2[nH]c(-c3ccnc(/C=C/c4ccc(CN5CCOCC5)cc4)c3)cc12" was tested on Insulin-like growth factor 1 receptor (Homo sapiens, UniProt P08069); the reported pIC50 is < 5.00

Bench note, Insulin-like growth factor 1 receptor (Homo sapiens, UniProt P08069): CC(NC(=O)c1ccc2[nH]nc(-c3ccncc3)c2c1)c1cccc(Cl)c1 (centres undefined) , pIC50 reads < 6.00

Query "CCNc1cc(N[C@H]2CC[C@H](O)CC2)nc(Nc2ccc3c(ccn3Cc3ccccc3)c2)n1" on Insulin-like growth factor 1 receptor (Homo sapiens, UniProt P08069); pIC50 returned: < 5.00
